Target: T1, His-tagged human TSLP antigen (huTSLP-his) (human)
T1 construct: Secreted from HEK293E and purified on nickel; whole entry named; also called Human TSLP-his
Assay: ELISA, coated huTSLP-his;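 note: binding of antibodies to plate-bound TSLP read as absorbance at 450 nm after TMB colour development, EC50 derived from binding curves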
Measured pEC50 by item
As a rule, pEC50 stands for the negative log10 of the concentration, concentration in M.

Q) Could you share which pEC50 value was measured for hu179-19 (antibody, human IgG1, kappa, V domains shown, IgG1-YTE, kappa) VH: EVQLVQSGAEVKKPGSSVKVSCKASGYAFSNYLIEWVRQAPGQGLEWIGVIDPGNGDTNYNENFKGRATLTADKSTSTAYMELSSLRSEDTAVYYCAREDNTGTAFDYWGQGTTVTVSS VL: SIVMTQTPLSLSVTPGQPASISCKASQSVSSDVTWYLQKPGQSPQLLIYYVSNHYTGVPDRFSGSGYGTDFTLKISRVEAEDVGVYYCQQHHRFPLTFGQGTKLEIKR ?
A) 9.79

Q) Could you share which pEC50 value was measured for hu179-03 (antibody, human IgG1, kappa, V domains shown, IgG1-YTE, kappa) VH: EVQLVQSGAEVKKPGSSVKVSCKASGYTFSNYLIEWVRQAPGQGLEWMGVIDPGNGDTNYNENFKGRVTLTADKSTSTAYMELSSLRSEDTAVYYCAREDNTGTAFDYWGQGTTVTVSS VL: DIVMTQSPDSLAVSLGERATINCKASQSVSSDVTWYQQKPGQPPKLLIYYVSNHYTGVPDRFSGSGSGTDFTLTISSLQAEDVAVYYCQQHHRFPLTFGQGTKLEIKR ?
A) 9.86

Q) Could you share which pEC50 value was measured for hu3-08 (antibody, human IgG1, kappa, V domains shown, IgG1-YTE, kappa) VH: EVQLVQSGAEVKKPGASVKVSCKASGYTFTDDYMNWVKQAPGQRLEWIGIISPYNGGTSYNQKFKGRATLTVDKSASTAYMELSSLRSEDTAVYYCAREDYDYDGYAMDHWGQGTTVTVSS VL: EIVLTQSPATLSLSPGERATLSCRASSSVSYMHWYQQKPGQAPRPLIYATSNLASGIPARFSGSGSGTDYTLTISRLEPEDFAVYYCQQWSSNRTFGGGTKVEIKR ?
A) 9.33

Q) Could you share which pEC50 value was measured for hu3-02 (antibody, human IgG1, kappa, V domains shown, IgG1-YTE, kappa) VH: EVQLVQSGAEVKKPGASVKVSCKASGYTFTDDYMNWVRQAPGQRLEWMGIISPYNGGTSYNQKFKGRVTITRDTSASTAYMELSSLRSEDTAVYYCAREDYDYDGYAMDHWGQGTTVTVSS VL: EIVLTQSPATLSLSPGERATLSCRASSSVSYMHWYQQKPGQAPRPWIYATSNLASGVPARFSGSGSGTDYTLTISRLEPEDFAVYYCQQWSSNRTFGGGTKVEIKR ?
A) 9.20
